Biological target: Hexokinase-4 (Homo sapiens, UniProt P35557)
Sequence (P35557 whole entry): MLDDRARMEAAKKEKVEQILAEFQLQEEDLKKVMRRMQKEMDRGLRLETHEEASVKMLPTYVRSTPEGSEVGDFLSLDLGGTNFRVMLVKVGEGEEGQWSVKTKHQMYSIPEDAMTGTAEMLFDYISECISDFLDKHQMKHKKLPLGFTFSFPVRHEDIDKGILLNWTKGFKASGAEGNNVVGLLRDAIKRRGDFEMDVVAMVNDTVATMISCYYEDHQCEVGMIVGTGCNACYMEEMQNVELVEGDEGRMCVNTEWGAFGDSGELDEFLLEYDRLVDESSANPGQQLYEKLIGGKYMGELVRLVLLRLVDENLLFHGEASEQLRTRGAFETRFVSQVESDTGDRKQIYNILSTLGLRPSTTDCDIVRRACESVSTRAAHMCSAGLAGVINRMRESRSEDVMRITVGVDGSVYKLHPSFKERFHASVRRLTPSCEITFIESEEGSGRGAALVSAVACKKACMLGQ
Assay: Activation of human glucokinase expressed in Escherichia coli BL21(DE3) coexpressing G6PDH by spectrometry
Details: read-out: EC50
pEC50: −log10 of the molar value.
Lab note: compare pEC50 against 6. Equal or greater, write True. Smaller, write False.

Determine whether this compound has pEC50 no lower than 6: C=C(C)c1csc(NC(=O)C(CC2CCOCC2)c2ccc(S(=O)(=O)C3CC3)cc2)n1 (stereo unspecified)
True

What do we get for O=C(Nc1nc2c(s1)CCC2)C(CC1CCOCC1)c1ccc(S(=O)(=O)C2CC2)cc1 (stereo unspecified) ?
True

Another compound to look at: Cc1nc(NC(=O)C(CC2CCOCC2)c2ccc(S(C)(=O)=O)cc2)sc1C (stereo unspecified)
False

Now the compound CC(C)c1nc(NC(=O)C(CC2CCOCC2)c2ccc(S(=O)(=O)C3CC3)cc2)sc1Br (stereo unspecified)
True

Same again, this time with CC(C)(C)c1csc(NC(=O)C(CC2CCOCC2)c2ccc(S(C)(=O)=O)cc2)n1 (stereo unspecified)
False

Record: O=C1CSC(NC(=O)C(CC2CCOCC2)c2ccc(S(=O)(=O)C3CC3)cc2)=N1 (stereo unspecified)
False

Another compound to look at: CN1CCc2nc(NC(=O)C(CC3CCOCC3)c3ccc(S(=O)(=O)C4CC4)cc3)sc2C1 (stereo unspecified)
False

Another compound to check: CS(=O)(=O)c1ccc(C(CC2CCOCC2)C(=O)Nc2nccs2)cc1 (stereo unspecified)
False

Follow-up entry: CC(C)Cc1csc(NC(=O)C(CC2CCOCC2)c2ccc(S(C)(=O)=O)cc2)n1 (stereo unspecified)
True

What about CC(C)c1csc(NC(=O)C(CC2CCOCC2)c2ccc(S(C)(=O)=O)cc2)n1 (stereo unspecified) ?
True

And "CC(C)c1csc(NC(=O)[C@H](CC2CCOCC2)c2ccc(S(C)(=O)=O)cc2)n1" ?
True
